- Tested on: CP297
- experiment notes: qHTS profiling for inhibitors of Plasmodium falciparum proliferation (AID 504749); further: nearly all actives have a fitted effect of over 60% in size
- reported conditions: P. falciparum in erythrocytes, SYBR Green DNA, 72 h; series mostly up to 28.7 µM
Results filed as inconclusive are left out. Activity calls are given as the source filed them. The call rests on the fitted dose curve; in most records, active means well fitted inhibition curve with a large enough effect; inconclusive means small, poorly fitted or top-dose-only effect; inactive means flat fitted curve, though single readings scatter.
// allowed return values: 1 = active, 0 = inactive

CCCCCCCC(=O)O: 0
C[C@H]1C[C@H]2[C@@H]3CCC4=CC(=O)C=C[C@]4(C)[C@@]3(F)[C@@H](O)C[C@]2(C)[C@@]1(O)C(=O)CO: 0
CCCCCCCCCCCC[n+]1ccc2ccccc2c1: 1
CCOc1ccc(N=Nc2ccc(N)cc2N)cc1: 0
COc1ccc2c3c1O[C@H]1C[C@@H](O)C=C[C@@]31CCN(C)C2: 0
CC[N+](C)(C)Cc1ccccc1Br: 0

Okay, next one:
Could you check what this test reported for "CC1(C)S[C@@H]2[C@H](NC(=O)[C@@H](NC(=O)N3CCNC3=O)c3ccccc3)C(=O)N2[C@H]1C(=O)O" ?
0

====

- Tested on: astro
- experiment notes: Drug repurposing screens with cells derived from glioblastoma tumor samples (AID 1345199); further: nearly all actives have a fitted effect of over 40% in size
- reported conditions: viability, ATP luminescence, 48 h; series mostly up to 45.9 µM
Results filed as inconclusive are left out. Calls of active or inactive are those of the source. Calls follow the shape of the dose curve; as a rule, active = well fitted inhibition curve with a large enough effect; inconclusive = small, poorly fitted or top-dose-only effect; inactive = flat fitted curve, though single readings scatter.
Thanks in advance; please answer with one of these: active, inactive

Solved cases (3 shown):
O=C(Nc1ccc(Br)cc1)c1cc(Br)c(Br)s1: active
O=C1C(=O)c2ncccc2-c2cccnc21: active
CCCCCCCCCCCC[n+]1ccc2ccccc2c1: active

Outcome? "CC(=O)OCC(=O)[C@@]1(O)CC[C@H]2[C@@H]3C[C@H](C)C4=CC(=O)C=C[C@]4(C)[C@H]3[C@@H](O)C[C@@]21C"
inactive

Please share the test call associated with CC(O)CO (stereo unspecified) .
inactive

# lookup: test call for "CC[N+](C)(C)Cc1ccccc1Br"
inactive

====

A collection of molecules and their measured Potency
- experiment notes: Drug repurposing screens with cells derived from glioblastoma tumor samples (AID 1345199); further: nearly all actives have a fitted effect of over 40% in size; further: potency means the concentration at half of the fitted maximal effect
- reported conditions: GBM patient neurospheres viability, ATP luminescence, 48 h; tumour line D
Inconclusive results are not listed. The source made the active and inactive calls. Calls follow the shape of the dose curve; as a rule, active = well fitted inhibition curve with a large enough effect; inconclusive = small, poorly fitted or top-dose-only effect; inactive = flat fitted curve, though single readings scatter.

C[C@]12O[C@H](C[C@]1(O)CO)n1c3ccccc3c3c4c(c5c6ccccc6n2c5c31)CNC4=O: 3.16 µM (active)
CCN(CC)Cc1cc(Nc2ccnc3cc(Cl)ccc23)ccc1O: 14.1 µM (active)
C=C(NC(=O)C(=C)NC(=O)c1csc(C2=N[C@@H]3c4csc(n4)[C@H]4NC(=O)c5csc(n5)[C@H]([C@](C)(O)[C@@H](C)O)NC(=O)[C@H]5CSC(=N5)C(=CC)NC(=O)C([C@@H](C)O)NC(=O)c5csc(n5)[C@]3(CC2)NC(=O)[C@H](C)NC(=O)C(=C)NC(=O)[C@H](C)NC(=O)C([C@@H](C)CC)NC2C=Cc3c([C@H](C)O)cc(nc3C2O)C(=O)O[C@@H]4C)n1)C(N)=O (stereo partly specified): 14.1 µM (active)
CCOC(=O)C1=C(C)NC(C)=C(C(=O)OCC)C1c1ccccc1C=CC(=O)OC(C)(C)C: 12.6 µM (active)

// query Potency value for entry "CNc1cc(OC)c(C(=O)N[C@H]2CCN(Cc3ccccc3)[C@H]2C)cc1Cl"
20 µM (active)

// returns reported Potency for input CN1CCC(CN2c3ccccc3Sc3ccccc32)C1 (stereo unspecified)
17.8 µM (active)
